measurement-description: Experimental logP by HPLC method
Assay type: physicochemical
recorded-conditions: HPLC method calibrated with eLogP of 4 selected inhibitors determined by shake-flask method; read-out: Exp. logP
Each record here notes measured chromatographic logP.

# compound, chromatographic logP
records = [
    ("O=C(Nc1ccc(C(F)(F)F)cc1)NC1CCN(C(=O)C2CCCOC2)CC1 (centres unmarked) [Compound 15]", 3.41),
    ("O=C(Nc1ccc(C(F)(F)F)cc1)NC1CCN(C(=O)C2=COCC2)CC1 [Compound 12]", 3.37),
    ("CC[C@H](C)C(=O)N1CCC(NC(=O)Nc2ccc(OC(F)(F)F)c(C(F)(F)F)c2)CC1 [Compound 46]", 9.02),
    ("CCC(=O)N1CCC(NC(=O)Nc2ccc(C(F)(F)F)c(F)c2)CC1 [Compound 31]", 3.76),
    ("O=C(Nc1ccc(C(F)(F)F)cc1)NC1CCN(C(=O)c2cc[nH]c2)CC1 [Compound 16]", 3.26),
    ("O=C(Nc1ccc(OC(F)(F)F)c(F)c1)NC1CCN(C(=O)N2CCOCC2)CC1 [Compound 43]", 3.93),
    ("O=C(Nc1ccc(C(F)(F)F)c(F)c1)NC1CCN(C(=O)[C@@H]2CCOC2)CC1 [Compound 33]", 3.41),
    ("CC[C@H](C)C(=O)N1CCC(NC(=O)Nc2ccc(OC(F)(F)F)c(F)c2)CC1 [Compound 26]", 4.16),
    ("O=C(Nc1ccc(C(F)(F)F)c(F)c1)NC1CCN(C(=O)C2CC2)CC1 [Compound 32]", 3.94),
    ("O=C(Nc1ccc(OC(F)(F)F)c(F)c1)NC1CCN(C(=O)C2(C(F)(F)F)CC2)CC1 [Compound 30]", 5.94),
    ("O=C(Nc1ccc(C(F)(F)F)c(F)c1)NC1CCN(C(=O)C2CCCOC2)CC1 (centres unmarked) [Compound 35]", 3.84),
]
